- test system: hGLP-1R (Homo sapiens, UniProt P43220)
- Sequence (P43220 24-463): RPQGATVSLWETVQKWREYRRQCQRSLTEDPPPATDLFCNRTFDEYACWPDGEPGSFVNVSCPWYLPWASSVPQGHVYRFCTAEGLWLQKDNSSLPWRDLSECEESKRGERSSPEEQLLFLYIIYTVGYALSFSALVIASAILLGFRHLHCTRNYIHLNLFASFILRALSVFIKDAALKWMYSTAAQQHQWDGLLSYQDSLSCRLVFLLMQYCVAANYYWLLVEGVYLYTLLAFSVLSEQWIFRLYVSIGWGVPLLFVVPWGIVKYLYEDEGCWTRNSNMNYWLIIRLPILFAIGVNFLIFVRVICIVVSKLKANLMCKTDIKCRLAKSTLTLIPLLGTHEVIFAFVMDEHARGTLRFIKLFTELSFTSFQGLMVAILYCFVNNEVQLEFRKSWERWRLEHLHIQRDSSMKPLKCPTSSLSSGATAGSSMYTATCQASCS
- protocol summary: cell-based or functional assay
parameter: Relative cAMP EC50 (nM)
Dear colleague, please return just the value in nM, with no unit written.

Query block: // Input: YXQGTFTSDFSKXLDKKAQXAFIEYLLAGGPSSGEPPPSSG (Aib, αMeL, acylated K, C-terminal amide; synthetic construct; SITE 2: note = 2-Aminoisobutyric Acid; SITE 13: note = alpha-methyl-leucine; SITE 17: note = Lysine is chemically modified through conjugation of the epsilon-amino group of the Lysine side chain with (2-[2-(2-Amino-ethoxy)-ethoxy]-acetyl)-(gamma-Glu)-CO-(CH2) 18-CO2H; SITE 20: n) [Example 7] . Output its Relative cAMP EC50 only.
Result block: 2.11

Query block: // Input: YXQGTFTSDFSQXLDKKAQXAFIEYLLEAGPSSGAPPPSGX (synthetic construct; SITE 2: note = 2-Aminoisobutyric Acid; SITE 13: note = alpha-methyl-leucine; SITE 17: note = Lysine is chemically modified through conjugation of the epsilon-amino group of the Lysine side chain with (2-[2-(2-Amino-ethoxy)-ethoxy]-acetyl)-(gamma-Glu)-CO-(CH2) 16-CO2H; SITE 20: n) [Example 777] . Output its Relative cAMP EC50 only.
Result block: 0.913

Query block: // Input: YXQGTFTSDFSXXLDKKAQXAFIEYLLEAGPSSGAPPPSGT (non-natural residues, (γGlu)2-C18 diacid lysine acylation, C-terminal amide; synthetic construct; SITE 2: note = 2-Aminoisobutyric Acid; SITE 12: note = L-ornithine; SITE 13: note = alpha-methyl-leucine; SITE 17: note = Lysine is chemically modified through conjugation of the epsilon-amino group of the Lysine side chain with (gamma-Glu)2-CO-(CH2)16-CO2H; SITE 20: note = 2-Am) [Example 204] . Output its Relative cAMP EC50 only.
Result block: 2.34
